Data credit: patent US4740505A

Test: Toxicological test: oral acute toxicity in mice
Design: species or system mice (ddY-SLC strained male)
Conditions: mouse, in vivo, five-week aged ddY-SLC male mice
Would you kindly list LD50 for each of these molecules?

Examples from the recorded data:
- molecule: "CCCSP(=O)(OCC)Oc1ccc(Sc2ccc(Cl)nn2)cc1 (stereo not shown) [Compound No. 4]"
  LD50: "> 300 mg/kg"
- molecule: "CCOP(=O)(Oc1ccccc1Oc1ccc(Cl)nn1)SC(C)C (stereo not shown) [compound 33]"
  LD50: "> 300 mg/kg"
- molecule: "CCCSP(=S)(OCC)Oc1ccc(Oc2ccc(Cl)nn2)cc1 (stereo not shown) [Compound No. 3]"
  LD50: "~300 mg/kg"
- molecule: "CCCSP(=O)(OCC)Oc1ccccc1Oc1ccc(OC)nn1 (stereo not shown) [Compound No. 39]"
  LD50: "~300 mg/kg"
- molecule: "CCCSP(=O)(OCC)Oc1cccc(Sc2ccc(Cl)nn2)c1 (stereo not shown) [compound 19]"
  LD50: "> 300 mg/kg"
- molecule: "CCCSP(=O)(OCC)Oc1ccc(Sc2ccc(N(C)C)nn2)cc1 (stereo not shown) [compound 8]"
  LD50: "~300 mg/kg"

Below is a list of molecules. For each, state its recorded LD50.
1. CCCSP(=S)(OCC)Oc1ccccc1Oc1ccc(Cl)nn1 (stereo not shown) [Compound No. 30]
2. CCCSP(=O)(OCC)Oc1ccccc1Oc1ccc(SCC)nn1 (stereo not shown) [compound 41]

["> 300 mg/kg", "~300 mg/kg"]
